A set of compounds tested on LONP1 (NM_004793.4) (Homo sapiens (Human)), with measured IC50:

Examples with answers:
O=C(N[C@@H](CCCc1ccccc1)B(O)O)[C@@H](CC(=O)N1CCOCC1)NS(=O)(=O)c1ccccc1    < 50 nM
O=C(N[C@H](CC(=O)N1CCOCC1)C(=O)N[C@@H](CCc1ccccc1)B(O)O)c1cnccn1    < 50 nM
COC[C@@H](NC(=O)c1ccccc1)C(=O)N[C@@H](CCCc1ccccc1)B(O)O    < 50 nM
CC(C)(C)NC(=O)N[C@H](CC(=O)N1CCOCC1)C(=O)N[C@@H](CCCc1ccccc1)B(O)O    50 to 500 nM

Query block: Please provide the recorded IC50 for `NC(=O)C[C@@H](NC(=O)c1cnccn1)C(=O)N[C@@H](CCCc1ccccc1)B(O)O` , tested on LONP1 (NM_004793.4) (Homo sapiens (Human)).
Sequence (P36776 68-959): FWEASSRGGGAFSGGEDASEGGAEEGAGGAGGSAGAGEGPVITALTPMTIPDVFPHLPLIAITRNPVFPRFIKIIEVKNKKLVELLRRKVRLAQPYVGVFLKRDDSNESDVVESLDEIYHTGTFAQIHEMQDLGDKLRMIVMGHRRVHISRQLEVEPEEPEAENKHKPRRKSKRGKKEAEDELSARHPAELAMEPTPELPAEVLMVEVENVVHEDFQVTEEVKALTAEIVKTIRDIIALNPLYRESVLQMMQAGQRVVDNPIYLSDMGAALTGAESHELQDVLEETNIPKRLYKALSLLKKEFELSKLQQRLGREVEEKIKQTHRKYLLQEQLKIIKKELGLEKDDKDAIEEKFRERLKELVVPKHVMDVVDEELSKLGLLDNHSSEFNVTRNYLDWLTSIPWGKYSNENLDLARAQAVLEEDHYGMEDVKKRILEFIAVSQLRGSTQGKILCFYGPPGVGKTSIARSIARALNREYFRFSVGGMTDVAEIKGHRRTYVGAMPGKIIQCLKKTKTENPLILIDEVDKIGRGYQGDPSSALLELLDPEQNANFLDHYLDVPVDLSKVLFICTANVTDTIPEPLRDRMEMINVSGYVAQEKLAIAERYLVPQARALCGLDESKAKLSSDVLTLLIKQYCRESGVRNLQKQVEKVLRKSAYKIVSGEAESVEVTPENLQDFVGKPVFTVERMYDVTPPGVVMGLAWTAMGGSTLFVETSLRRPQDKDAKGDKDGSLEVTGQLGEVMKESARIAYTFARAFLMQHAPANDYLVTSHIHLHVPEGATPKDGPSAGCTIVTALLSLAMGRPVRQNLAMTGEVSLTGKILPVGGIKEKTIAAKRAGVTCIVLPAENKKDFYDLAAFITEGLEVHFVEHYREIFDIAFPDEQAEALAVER
Result block: < 50 nM

Query block: Please provide the recorded IC50 for `COC[C@@H](NC(=O)c1cccc(OC)n1)C(=O)N[C@@H](CCCc1ccccc1)B(O)O` , tested on LONP1 (NM_004793.4) (Homo sapiens (Human)).
Result block: < 50 nM

Query block: Please provide the recorded IC50 for O=C(NC(CC(=O)N1CCOCC1)C(=O)N[C@@H](Cc1ccccc1)B(O)O)c1cnccn1 (stereo in doubt) , tested on LONP1 (NM_004793.4) (Homo sapiens (Human)).
Result block: > 5000 nM
